- STUDY SYSTEM: T1, MUC1 on MUC1+ human cancer cell lines and tumor tissue (abnormal, e.g. hypoglycosylated, tumor MUC1) (human, UniProt P15941 24-1255)
- T1 construct: the MUC1 of each cell line or tissue (number of repeats, glycoform) is not specified; The cell line or tissue is named under assay; also called MUC1 on HPAF, MCF-7, BT-20, SKBR-3, PANC-1, MS+MUC1 cells; MUC1 on colon and pancreatic tumor samples
- ASSAY EXPLANATION: flow cytometry, MCF-7 cells
VALUE TYPE: percentage of APC+ stained cells

Give the measured percentage of APC+ stained cells of M21 (antibody, human IgG1, kappa, V domains shown, Human IgG) VH: EVQLVESGGGLVQPGGSLRLSCAASGFTVSSNYMSWVRQAPGKGLEWVSVIYSGGSTYYADSVKGRFTISRDNSKNTLYLQMNSLRAEDTAVYYCARDQEHYFDGSGYYVDYWGQGTLVTVSS VL: DVVMTQSPLSLPVTLGQPASISCRSSQSLVYSDGNTYLNWFQQRPGQSPRRLIYQVSNRDSGVPDRFSGSGSGTDFTLKIGRVEAEDVGVYFCMQGTHWPWTFGQGTKVEIKR .
5%
